assay: NCI Yeast Anticancer Drug Screen. Data for the mec2-1 strain (AID 157); conditions: S. cerevisiae mec2-1 strain, at 50.0 µM, stronger effect = higher value
The panel holds about 79,000 compounds, 15% with a hit somewhere; the sample as a whole holds those more often.
outcomeMeasure: growth inhibition (%)
Form entry: value (%) — number only.

Use the examples below as a reference point.
CC(=O)N1CCNC(c2ccccc2)C1(C)C (stereo not given) :: -6.95
COC(=O)c1cc(C(c2cc(C)c(O)c(C(=O)OC)c2)c2cc(C)c(O)c(C(=O)OC)c2)cc(C)c1O :: 10.6
COc1ccc(CC(O)CN2CCC(CCN)CC2)cc1 (stereo not given) :: -7.45

Any idea what growth inhibition was measured for Nc1ncnc2c1nnn2C1CCC(CP(=O)(O)O)C1 (stereo not given) ?
4.45

Any idea what growth inhibition was measured for `O=NN(Cc1ccccc1)NC(=O)c1ccccc1` ?
28.1

// lookup growth inhibition for `CC(=O)OC(OC(C)=O)c1ncccc1C(=O)OC(C)C`
-13.2

Form field: reported growth inhibition of `NNc1nnc(Cl)c2c1ncn2Cc1ccccc1`
-7.45

GET /values?readout=growth inhibition&item= `C#CCNCCCn1c(=O)nc2n(-c3ccccc3)c3ccccc3nc-2c1=O`
19.2

Field request: growth inhibition | item: `O=C1C[C@@H]2[C@@H](CCC23CCCC3)N1`
12.9

Look at this molecule and give its reported growth inhibition. `O=[N+]([O-])c1ccc(N=NN2CCOCC2)cc1`
3.5

Recorded growth inhibition of `O=CCCc1ccccc1` , please.
-22.1

Which growth inhibition value belongs to `O=c1[nH]cnc2c1ncn2CCc1ccc([N+](=O)[O-])cc1[N+](=O)[O-]` ?
-6.15

Please look up its growth inhibition: `CSC(=N\N=C\c1c(F)cccc1Cl)/N=C/N(C)C`
-4.1

###

test: NCI Yeast Anticancer Drug Screen. Data for the mec2-1 strain (AID 157); conditions: S. cerevisiae mec2-1 strain, at 50.0 µM, stronger effect = higher value
About 79,000 compounds went through this panel and 15% of them were active in at least one assay; those are over-represented in the sample as a whole.
Known growth inhibition of a selection of compounds
Unit % implied. Number only.

COC(=O)c1ccc(CSc2ccccc2NC(=S)Nc2cccc(C(F)(F)F)c2)o1 :: -20.2
Cc1cc(N)ccc1N=Nc1cc(S(=O)(=O)O)c2cccc(S(=O)(=O)O)c2c1 :: 22.1
CCCCCOc1nc2c(c(=O)n(C)c(=O)n2C)n1C :: -2.55
Cc1ccc(S(=O)(=O)N(c2c(F)cc(C#N)cc2F)S(=O)(=O)c2ccc(C)cc2)cc1 :: 6.35
CC(C)=C(OC(=O)c1ccccc1)C(C)(CC(C)(C)C)C(C)(C)C (centres undefined) :: -55.3

What value of growth inhibition has been recorded for this entry: O=S1(=O)C2C=CCC1C(Cl)CC2 (centres undefined)
29.9

Field request: growth inhibition | item: `CCOC(=O)/C(C#N)=C\Nc1ccc(C)cc1`
-26.6

So what does the record say about growth inhibition for `Cc1ccccc1N(C)S(=O)(=O)c1ccccc1[N+](=O)[O-]` ?
-41.5

Given the entry `C[CH2][Sn]([CH2]C)([O]C(=O)c1ccc2c(c1)OC(C)(C)O2)[O]C(=O)c1ccc2c(c1)OC(C)(C)O2` , report its measured growth inhibition.
52.1

All values here come from PubChem BioAssay (NCI).
